# TEST SYSTEM: Aryl hydrocarbon receptor (Homo sapiens) (UniProt P35869)
# Sequence (P35869 whole entry, looked up): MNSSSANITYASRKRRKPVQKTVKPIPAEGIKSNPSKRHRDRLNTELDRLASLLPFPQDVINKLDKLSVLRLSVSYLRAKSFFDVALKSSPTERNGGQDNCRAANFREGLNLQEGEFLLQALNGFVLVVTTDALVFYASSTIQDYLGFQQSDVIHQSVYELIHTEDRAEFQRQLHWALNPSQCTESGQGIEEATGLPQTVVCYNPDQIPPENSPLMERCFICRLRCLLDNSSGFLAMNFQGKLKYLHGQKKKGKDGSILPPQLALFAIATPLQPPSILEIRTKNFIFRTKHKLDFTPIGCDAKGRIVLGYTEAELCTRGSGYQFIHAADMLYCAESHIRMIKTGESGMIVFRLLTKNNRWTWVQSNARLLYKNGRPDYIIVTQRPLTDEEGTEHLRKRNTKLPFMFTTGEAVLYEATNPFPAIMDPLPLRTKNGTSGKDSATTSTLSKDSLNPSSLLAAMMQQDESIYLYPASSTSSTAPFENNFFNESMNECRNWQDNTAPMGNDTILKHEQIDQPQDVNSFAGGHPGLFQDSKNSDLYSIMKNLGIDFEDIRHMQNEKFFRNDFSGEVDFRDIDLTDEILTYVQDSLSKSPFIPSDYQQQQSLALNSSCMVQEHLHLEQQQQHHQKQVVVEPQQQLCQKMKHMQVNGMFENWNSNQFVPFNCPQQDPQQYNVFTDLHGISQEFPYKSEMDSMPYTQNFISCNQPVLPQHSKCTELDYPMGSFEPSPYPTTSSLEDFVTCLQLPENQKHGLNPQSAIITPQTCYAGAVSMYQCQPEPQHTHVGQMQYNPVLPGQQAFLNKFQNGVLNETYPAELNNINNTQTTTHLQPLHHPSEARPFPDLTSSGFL
# PROTOCOL DESCRIPTION: ATG_Ahr_CIS: Attagene CIS-FACTORIAL HepG2 Assay for human Aryl Hydrocarbon Receptor (Ahr) (AID 2282930)
# DETAILS: HepG2 AhR cis-factorial reporter transcription; actives raise or lower the signal
The source made the active and inactive calls. How the source made its calls: active means hit-call score of the fitted dose curve at least 0.9, where 1 is the maximum; inactive means score below 0.9.
Outcome codes: active, inactive

{"MOLECULE": "CCN1CCC2(CC1)COc1cc3c(cc12)N(C(=O)c1ccc(-c2ccc(-c4nnc(C)o4)cc2C)cc1)CC3", "CATEGORY": "inactive"}
{"MOLECULE": "C1CCC(NC2CCCCC2)CC1", "CATEGORY": "inactive"}
{"MOLECULE": "Oc1ccc(-c2ccccc2)cc1", "CATEGORY": "inactive"}
{"MOLECULE": "CCN(CC)C(=O)Cl", "CATEGORY": "inactive"}
{"MOLECULE": "C(=NC1CCCCC1)=NC1CCCCC1", "CATEGORY": "inactive"}
{"MOLECULE": "Nc1cccc2ccccc12", "CATEGORY": "active"}
{"MOLECULE": "C=C(C)C(=O)[O][Sn]([CH2]CCC)([CH2]CCC)[CH2]CCC", "CATEGORY": "inactive"}
{"MOLECULE": "CC12CC1(C)C(=O)N(c1cc(Cl)cc(Cl)c1)C2=O (stereo not drawn)", "CATEGORY": "inactive"}
{"MOLECULE": "Clc1nc(Cl)nc(Cl)n1", "CATEGORY": "active"}
{"MOLECULE": "C[C@H]1CCCC(=O)CCC/C=C/c2cc(O)cc(O)c2C(=O)O1", "CATEGORY": "active"}
{"MOLECULE": "COc1ccc(C=O)cc1", "CATEGORY": "inactive"}
{"MOLECULE": "NC(=O)O", "CATEGORY": "inactive"}
{"MOLECULE": "OCC(O)CCl (stereo not drawn)", "CATEGORY": "inactive"}
{"MOLECULE": "C[C@]12CC[C@H](O)CC1=CC[C@@H]1[C@@H]2CC[C@]2(C)C(=O)CC[C@@H]12", "CATEGORY": "inactive"}
{"MOLECULE": "N#Cc1ccccn1", "CATEGORY": "inactive"}
{"MOLECULE": "CCCCOCCOC(C)=O", "CATEGORY": "inactive"}
{"MOLECULE": "O=S(=O)(c1ccc(Cl)cc1)c1ccc(Cl)cc1", "CATEGORY": "inactive"}
{"MOLECULE": "O=C(O)C(F)(F)C(F)(F)C(F)(F)C(F)(F)C(F)(F)C(F)(F)F", "CATEGORY": "inactive"}
{"MOLECULE": "O=C(NCO)NCO", "CATEGORY": "inactive"}
{"MOLECULE": "Nc1ncc([N+](=O)[O-])s1", "CATEGORY": "active"}
{"MOLECULE": "BrCCBr", "CATEGORY": "inactive"}
{"MOLECULE": "Nc1cccc(Cl)c1", "CATEGORY": "inactive"}
{"MOLECULE": "Cc1ccc2ccccc2c1C", "CATEGORY": "active"}

###

# PROTOCOL DESCRIPTION: ATG_BRE_CIS: Attagene CIS-FACTORIAL HepG2 Assay for human Bone Morphogenetic Protein (BMP) Response Element (BRE) (AID 2282933)
# DETAILS: HepG2 BMP response element reporter, Attagene transcription factor profiling; actives raise or lower the signal
Activity calls are given as the source filed them. Rule for the calls: active = hit-call score of the fitted dose curve at least 0.9, where 1 is the maximum; inactive = score below 0.9.
Outcome codes: 1 (yes) = active, 0 (no) = inactive

{"COMPOUND": "O=CC=O", "CATEGORY": "0 (no)"}
{"COMPOUND": "COc1ccc(OC)c(C=O)c1", "CATEGORY": "0 (no)"}
{"COMPOUND": "C=C(C)C(=O)[O][Sn]([CH2]CCC)([CH2]CCC)[CH2]CCC", "CATEGORY": "0 (no)"}
{"COMPOUND": "CCOP(=S)(OCC)Oc1ccc(S(C)=O)cc1 (configuration not stated)", "CATEGORY": "0 (no)"}
{"COMPOUND": "ClCc1cccnc1", "CATEGORY": "0 (no)"}
{"COMPOUND": "Clc1nc(Cl)nc(Cl)n1", "CATEGORY": "0 (no)"}
{"COMPOUND": "CC(C)(OO)c1ccccc1", "CATEGORY": "0 (no)"}
{"COMPOUND": "CN(C)P(=O)(N(C)C)N(C)C", "CATEGORY": "0 (no)"}
{"COMPOUND": "N#CCc1ccc(Cl)cc1", "CATEGORY": "0 (no)"}
{"COMPOUND": "O=C(NCO)NCO", "CATEGORY": "0 (no)"}
{"COMPOUND": "Cc1cc(=O)[nH]o1", "CATEGORY": "0 (no)"}
{"COMPOUND": "CCNc1nc(NC(C)(C)C)nc(SC)n1", "CATEGORY": "0 (no)"}
{"COMPOUND": "COC(=O)Cc1ccccc1", "CATEGORY": "0 (no)"}
{"COMPOUND": "Oc1cccc2cccnc12", "CATEGORY": "0 (no)"}
{"COMPOUND": "CCOP(=O)(CN(CCO)CCO)OCC", "CATEGORY": "0 (no)"}
{"COMPOUND": "CC(=O)C(Cl)C(=O)N(C)C (configuration not stated)", "CATEGORY": "0 (no)"}
{"COMPOUND": "Cc1cc(Cl)ccc1O[C@H](C)C(=O)O", "CATEGORY": "0 (no)"}
{"COMPOUND": "COS(=O)(=O)c1ccc(C)cc1", "CATEGORY": "0 (no)"}
{"COMPOUND": "COP(=S)(OC)Oc1cc(Cl)c(Cl)cc1Cl", "CATEGORY": "1 (yes)"}
{"COMPOUND": "Nc1cccc2ccccc12", "CATEGORY": "0 (no)"}
{"COMPOUND": "C[C@H]1CCCC(=O)CCC/C=C/c2cc(O)cc(O)c2C(=O)O1", "CATEGORY": "1 (yes)"}
{"COMPOUND": "CC(=O)C=C(C)C", "CATEGORY": "0 (no)"}
{"COMPOUND": "CCOP(=S)(OCC)Oc1nc(Cl)c(Cl)cc1Cl", "CATEGORY": "1 (yes)"}
{"COMPOUND": "NNC(=S)NN", "CATEGORY": "0 (no)"}
{"COMPOUND": "CC(C)(C)c1cc(O)ccc1O", "CATEGORY": "1 (yes)"}
{"COMPOUND": "CCCCCCCCSC(=O)Oc1cc(Cl)nnc1-c1ccccc1", "CATEGORY": "0 (no)"}
{"COMPOUND": "O=C(c1ccccc1)C(Cl)Cl", "CATEGORY": "0 (no)"}
{"COMPOUND": "COc1ccc(C=O)cc1OC", "CATEGORY": "0 (no)"}
{"COMPOUND": "C[C@]12CC[C@H](O)CC1=CC[C@@H]1[C@@H]2CC[C@]2(C)C(=O)CC[C@@H]12", "CATEGORY": "0 (no)"}
{"COMPOUND": "N#CN=C(N)N", "CATEGORY": "0 (no)"}
{"COMPOUND": "COC(=O)c1sccc1S(=O)(=O)NC(=O)Nc1nc(C)nc(OC)n1", "CATEGORY": "0 (no)"}
{"COMPOUND": "COP(=S)(OC)Oc1c(Cl)cc(C)cc1Cl", "CATEGORY": "0 (no)"}
{"COMPOUND": "CC(C)C1CCC(Cc2ccc(Cl)cc2)C1(O)Cn1cncn1 (configuration not stated)", "CATEGORY": "1 (yes)"}
{"COMPOUND": "COP(=O)(OC)O/C(=C\\Cl)c1cc(Cl)c(Cl)cc1Cl", "CATEGORY": "1 (yes)"}
{"COMPOUND": "C=CC(=O)N(C)C", "CATEGORY": "0 (no)"}
{"COMPOUND": "CC(C)OC(=O)Nc1ccccc1", "CATEGORY": "0 (no)"}
{"COMPOUND": "CCOP(OCC)OCC", "CATEGORY": "0 (no)"}
{"COMPOUND": "COP(=O)(OC)OC", "CATEGORY": "0 (no)"}
{"COMPOUND": "OCC(O)CCl (configuration not stated)", "CATEGORY": "0 (no)"}
{"COMPOUND": "CC(=O)[O][Hg][c]1ccccc1", "CATEGORY": "0 (no)"}
{"COMPOUND": "CCOC(=O)/C=C(C)/C=C/C[C@@H](C)CCCC(C)C", "CATEGORY": "0 (no)"}
{"COMPOUND": "O=C(CCl)CCl", "CATEGORY": "0 (no)"}
{"COMPOUND": "O=Cc1cccc(Oc2ccccc2)c1", "CATEGORY": "0 (no)"}
{"COMPOUND": "CNC(=O)O/N=C/C(C)(C)S(C)=O (configuration not stated)", "CATEGORY": "0 (no)"}
{"COMPOUND": "CCc1ccccc1N", "CATEGORY": "0 (no)"}
{"COMPOUND": "ClC1=C(Cl)[C@]2(Cl)[C@@H]3[C@@H](Cl)[C@@H](Cl)C[C@@H]3[C@@]1(Cl)C2(Cl)Cl", "CATEGORY": "0 (no)"}
{"COMPOUND": "O=C(O)C(F)(F)C(F)(F)C(F)(F)C(F)(F)C(F)(F)C(F)(F)F", "CATEGORY": "0 (no)"}
{"COMPOUND": "CCSC(C)CC1CC(=O)C(C(CC)=NOC/C=C/Cl)=C(O)C1 (configuration not stated)", "CATEGORY": "0 (no)"}
{"COMPOUND": "CCCCCCCCC(=O)NCc1ccc(O)c(OC)c1", "CATEGORY": "1 (yes)"}
{"COMPOUND": "CC12CC1(C)C(=O)N(c1cc(Cl)cc(Cl)c1)C2=O (configuration not stated)", "CATEGORY": "0 (no)"}
{"COMPOUND": "O=C/C=C/c1ccccc1", "CATEGORY": "0 (no)"}
{"COMPOUND": "Cc1ccc2ccccc2c1C", "CATEGORY": "0 (no)"}
